protocol details: AUCall in C57 Black mouse liver at 10 mg/kg, po
Format: ADME, organism-based
Set-up: dose 10 mg/kg
reported property: AUC (ng·h/mL)
State just the number; it will be interpreted in ng·h/mL.

Query string: If you can, please state the reported AUC value of "O=C(CCCc1cccs1)N1CCN(c2ccc(C(F)(F)F)cc2)CC1" .
Result string: 4050

---

protocol details: Half life in C57 Black mouse kidney at 10 mg/kg, iv
Format: ADME, organism-based
reported property: half-life (min)
Field: numeric (min). Do not append units.

Query string: Query (compound): "O=C(CCCc1cccs1)N1CCN(c2ccc(C(F)(F)F)cc2)CC1" ; field requested: half-life
Result string: 45.6

---

protocol details: AUCinfinity in C57 Black mouse liver at 10 mg/kg, iv
Assay type: ADME, organism-based
Set-up: route intravenous, time infinity, dose 10 mg/kg
reported property: AUC(0-inf) (µg·h/mL)
Reply with just the number (in µg·h/mL).

Query string: Sample "O=C(CCCc1cccs1)N1CCN(c2ccc(C(F)(F)F)cc2)CC1" — what was its AUC(0-inf)?
Result string: 0.531

---

protocol details: AUCall in C57 Black mouse brain at 10 mg/kg, po
Type: ADME, organism-based
Set-up: dose 10 mg/kg
reported property: AUC
Provide a numeric answer, followed by its unit.

Query string: May I ask what AUC has been recorded for "O=C(CCCc1cccs1)N1CCN(c2ccc(C(F)(F)F)cc2)CC1" ?
Result string: 763 ng·h/mL

---

Kindly supply the reported pIC50 values for the records listed here.
protocol details: Inhibition of NADH:ubiquinone oxidoreductase in rat liver mitochondria incubated for 3 mins
Scale for pIC50: -log10 of concentration given in mol/L; no unit attached.

Query string: Bench note: what pIC50 did "O=C(CCCc1cccs1)N1CCN(c2ccccc2)CC1" show?
Result string: 3.88

Query string: Recorded pIC50 of "O=C(CCCc1cccs1)N1CCC(c2ccc(C(F)(F)F)cc2)CC1" , please.
Result string: 4.82

Query string: // pIC50 lookup, key: "O=C(CCSc1cccs1)N1CCN(c2ccc(C(F)(F)F)cc2)CC1"
Result string: 4.85
